System: NCI-H322M lung
Test: NCI-60 one-dose screen, 48 h (100 = growth as untreated, 0 = no growth, -100 = all killed)
Settings: 10 µM unless noted
This is part of a sample that, as a whole, favours compounds with a hit. Of some 83,000 tested, about 20% had one in any assay.
PROPERTY NAME: growth (%)
Dear colleague, please return just the value in %, with no unit written.

The measured growth associated with `O=c1c2cc(F)ccc2sc2c(N3CCCCC3)nc3ccccc3c12` reads 90.1

The measured growth associated with `Cc1ccc(-c2cnc3sc(C(=O)NCCc4ccccc4)c(C)n23)cc1` reads 91.6

The measured growth associated with `C=C1C(=O)O[C@H]2[C@H]1CC/C(COC(=O)CSCC(=O)OC/C1=C/CC[C@@]3(C)O[C@H]3[C@H]3OC(=O)C(=C)[C@@H]3CC1)=C\CC[C@@]1(C)O[C@@H]21` reads 90.7

The measured growth associated with `CCOC(=O)c1sc2ncc(-c3ccc(C)cc3)n2c1C` reads 92.6

The measured growth associated with `CCCSc1nc2ccc(C)cc2cc1/C=[N+](\[O-])c1ccccc1` reads 90.9

The measured growth associated with `COc1cccc(Cc2nn3cc(-c4ccccc4)nc3s2)c1` reads 91.8

The measured growth associated with `c1ccc(-c2nc3sc(-c4ccccc4)cn3n2)cc1` reads 88.2

###

Test system: NCI-H23 lung
Assay: NCI-60 one-dose screen, 48 h (100 = growth as untreated, 0 = no growth, -100 = all killed)
Details: 10 µM unless noted
Compounds without any hit were thinned out: in the full panel of roughly 83,000, 20% have a hit. Activity calls are given as the source filed them. How the source made its calls: active means growth percent below 10; inactive means the rest.
PROPERTY NAME: growth

The measured growth associated with `COc1cccc(OC)c1C(=O)N[C@@H]1C(=O)N2[C@@H]1SC(C)(C)[C@@H]2C(=O)O` reads 103% (inactive)

The measured growth associated with `Cc1ccc(NC2=C(Cl)C(=O)c3nc(C)ccc3C2=O)cc1` reads -30.5% (active)

The measured growth associated with `Cc1ccccc1C(=O)NN` reads 104% (inactive)

The measured growth associated with `CN1CCN(c2ccc(-c3cnc4c(-c5csc6ccccc56)cnn4c3)cc2)CC1` reads 14.3% (inactive)

The measured growth associated with `O=c1c2cc(F)ccc2sc2c(N3CCNCC3)nc3ccccc3c12` reads 68.8% (inactive)

The measured growth associated with `C#C[C@]1(O)CC[C@H]2[C@@H]3CC=C4c5sc(Nc6cc(F)ccc6F)nc5CC[C@]4(C)[C@H]3CC[C@@]21C` reads 4.23% (active)

The measured growth associated with COc1cc(C2CC(c3ccc(SC)cc3)=NN2C(C)=O)cc(OC)c1OC (stereo not drawn) reads 70.5% (inactive)

The measured growth associated with `COc1ccc(/C=N/Nc2cc(=O)[nH]c3ccc(Cl)cc23)cc1` reads 20.2% (inactive)

###

Tested on: SW-620 colon
Experiment: NCI-60 one-dose screen, 48 h (100 = growth as untreated, 0 = no growth, -100 = all killed)
Conditions: 10 µM unless noted
This is part of a sample that, as a whole, favours compounds with a hit. Of some 83,000 tested, about 20% had one in any assay.
Assign growth to each entry below.
Dear colleague, please return just the value in %, with no unit written.

Entry `COc1cc(Nc2cn[nH]c2-c2ccc(Cl)cc2)cc(OC)c1OC` , SW-620 colon data, growth value: 19.3

Entry `O=C(CSc1nccc(Nc2ccc(S(=O)(=O)Nc3nccs3)cc2)n1)c1ccc(C(F)(F)F)cc1` , SW-620 colon data, growth value: 102

Entry `Cc1nn(-c2ccccc2)c2c1N=c1s/c(=C\c3ccc(C(F)(F)F)cc3)c(=O)n1CN2` , SW-620 colon data, growth value: 75.7

###

Test system: ACHN renal
Assay: NCI-60 one-dose screen, 48 h
Conditions: 10 µM unless noted
About 83,000 compounds went through this panel and 20% of them were active in at least one assay; those are over-represented in the sample as a whole. Calls of active or inactive are those of the source. Rule for the calls: active = growth percent below 10; inactive = the rest.
Thanks in advance; please answer with one of these: active, inactive

Exercise: # outcome recorded in this test, key = `N#C/C(=C\c1cccc2cnccc12)n1nnc2cccc(F)c21`
Solution: inactive

Exercise: # outcome recorded in this test, key = `CN1CCN(Cc2ccc(NC(=O)c3cncc(C#Cc4cnccc4C#N)c3)cc2C(F)(F)F)CC1`
Solution: inactive

Exercise: # outcome recorded in this test, key = COc1ccc2cc(C(C)C(=O)Nc3ccc(-c4n[nH]c(=S)n4C4CCCCC4)cc3)ccc2c1 (configuration not stated)
Solution: inactive

Exercise: # outcome recorded in this test, key = `N#Cc1c(-c2ccc(Cl)cc2)nc2c(c(-c3ccccc3)nn2-c2ccccc2)c1-c1ccc(O)cc1`
Solution: inactive

Exercise: # outcome recorded in this test, key = `CCN(CC)CCNC(=O)c1cn2ncnc(Oc3ccc(NC(=O)Nc4ccc(Cl)c(C(F)(F)F)c4)cc3)c2c1C`
Solution: active

Exercise: # outcome recorded in this test, key = `CCOC(=O)CCN(C(=O)Nc1ccccc1)C1CCCCC1`
Solution: inactive

Exercise: # outcome recorded in this test, key = `COc1ccc(-c2[nH]ncc2-c2cc3c(c(OC)c2)OCC(=O)N3)cc1`
Solution: inactive

Exercise: # outcome recorded in this test, key = `O=C1/C(=C/c2ccccc2[N+](=O)[O-])Oc2ccc(O)c(O)c21`
Solution: inactive

Exercise: # outcome recorded in this test, key = `CCOC(=O)c1cn2ncnc(Oc3ccc(NC(=O)NCCN(CC)CC)c(Cl)c3)c2c1C`
Solution: inactive

Exercise: # outcome recorded in this test, key = `CCCCOc1ccc(/C=N/NC(N)=S)cc1`
Solution: inactive

Exercise: # outcome recorded in this test, key = NCCOc1ncccc1/C=C1\C2C=CC=CC2C2C=CC(F)=CC12 (configuration not stated)
Solution: active

Exercise: # outcome recorded in this test, key = `CC(=O)Oc1ccccc1C(=O)N=C1[Se]CCCN1C(=O)c1ccccc1OC(C)=O`
Solution: inactive

Exercise: # outcome recorded in this test, key = `COc1ccc(OC)c(/C=C/C(=O)N/N=C/c2ccccc2)c1`
Solution: inactive

Exercise: # outcome recorded in this test, key = `Cc1nc(/N=C(\N)NC(=O)Nc2ccccc2Cl)sc1C`
Solution: inactive

Exercise: # outcome recorded in this test, key = CC1=NN(c2ccc(S(=O)(=O)O)cc2)C(=O)C1N=Nc1ccc(-c2ccc(N=Nc3ccc(OS(=O)(=O)c4ccc(C)cc4)cc3)c(S(=O)(=O)O)c2)cc1 (configuration not stated)
Solution: inactive

Exercise: # outcome recorded in this test, key = `COc1ccc(/C=N/Nc2cc(=O)[nH]c3ccc(C)cc23)cc1`
Solution: inactive

Exercise: # outcome recorded in this test, key = `COc1cc(C(=O)c2cnc(-c3c[nH]c4cccc(C)c34)[nH]2)cc(OC)c1OC`
Solution: inactive

Exercise: # outcome recorded in this test, key = `NS(=O)(=O)c1ccc(N=Nc2ccc(-c3nn4cc(-c5ccccc5)nc4s3)cc2)cc1`
Solution: inactive

Exercise: # outcome recorded in this test, key = `CCCCOc1nc2c(C)cccc2cc1-c1cc(-c2ccc(Cl)cc2)nc(-c2ccc(Cl)cc2)c1`
Solution: inactive

Exercise: # outcome recorded in this test, key = `COc1ccc(CN2c3ccccc3CCc3ccccc32)cc1F`
Solution: inactive

Exercise: # outcome recorded in this test, key = `O=C(N=c1oc2ccccc2cc1-c1cc2ccccc2[nH]1)Nc1ccc(Cl)cc1`
Solution: inactive

Exercise: # outcome recorded in this test, key = CC1=C(SCCC(=O)OC(C[Se]C2=C(C)C(=O)c3ccccc3C2=O)C(=O)NC(C)(C)C)C(=O)c2ccccc2C1=O (configuration not stated)
Solution: active

Exercise: # outcome recorded in this test, key = `COc1cc2cc(Oc3ccc(NC(=O)Nc4ccc(Cl)c(C(F)(F)F)c4)cc3)c(C)nc2cc1OCCN1CCOCC1`
Solution: inactive

Exercise: # outcome recorded in this test, key = `COc1cc(/C=C/c2c(C(C)=O)c(C)nc3ccccc23)cc(OC)c1OC`
Solution: inactive

Exercise: # outcome recorded in this test, key = `O=C(CCCCCCSc1nc(-c2ccccc2)cc(-c2ccccc2)n1)NO`
Solution: inactive

Exercise: # outcome recorded in this test, key = `NC(=O)Nc1ccc2ncnc(Nc3ccc(Cl)cc3)c2c1`
Solution: inactive

Exercise: # outcome recorded in this test, key = `CN1CCN(CC(=O)N2c3cccc4cccc(c34)N(C(=O)CN3CCN(C)CC3)C2c2cn(-c3ccccc3)nc2-c2cccc([N+](=O)[O-])c2)CC1`
Solution: active

Exercise: # outcome recorded in this test, key = `Cc1ccc2c(-c3cc(-c4ccccc4)nc(N)c3C#N)cc(=O)oc2c1`
Solution: inactive

Exercise: # outcome recorded in this test, key = `COc1c(B(O)O)cc(C)cc1-c1nc2ccc3[nH]ncc3c2c2c1CCCC2`
Solution: inactive

Exercise: # outcome recorded in this test, key = `O=C(/C=C/c1sc(Cl)nc1Cl)c1ccc(Br)cc1`
Solution: inactive

Exercise: # outcome recorded in this test, key = `Oc1ccc(Cl)cc1Cc1cc(Cl)cc(Cl)c1O`
Solution: inactive

Exercise: # outcome recorded in this test, key = `CCCSc1nc2ccc(C)cc2cc1/C=[N+](\[O-])c1ccccc1`
Solution: inactive
